Data origin, for the record: paper PMC7481482

Target: human NTPDase2 (Homo sapiens, UniProt Q9Y5L3)
Construct: expressed in transfected cells; host or cells: COS-7 cells (membrane preparation)
Sequence (Q9Y5L3 whole entry): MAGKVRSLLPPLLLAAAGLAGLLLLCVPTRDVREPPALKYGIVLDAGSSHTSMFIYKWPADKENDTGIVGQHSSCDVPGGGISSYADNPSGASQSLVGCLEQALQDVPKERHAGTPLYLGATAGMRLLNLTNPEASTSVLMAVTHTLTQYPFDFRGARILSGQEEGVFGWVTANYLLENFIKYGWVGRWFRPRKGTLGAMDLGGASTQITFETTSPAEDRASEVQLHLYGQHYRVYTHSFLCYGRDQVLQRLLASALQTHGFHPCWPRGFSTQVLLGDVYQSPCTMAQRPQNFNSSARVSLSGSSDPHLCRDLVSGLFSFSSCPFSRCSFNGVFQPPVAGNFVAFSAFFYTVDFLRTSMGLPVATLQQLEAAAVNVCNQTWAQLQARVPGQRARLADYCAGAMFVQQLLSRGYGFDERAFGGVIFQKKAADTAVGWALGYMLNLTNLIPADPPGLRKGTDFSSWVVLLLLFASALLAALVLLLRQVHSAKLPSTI
Assay: Malachite green assay, human NTPDase2
Assay type: biochemical
Conditions: 2 μM compound; 100 µM ATP; COS-7 membrane preparation; read-out: % inhibition at 2 μM concentration, NTPDase2
quantity_name: inhibition at 2 µM (%)

{"compound": "CCc1cccc(Nc2cc(C)c(N)c3c2C(=O)c2ccccc2C3=O)c1 [Compound 56]", "endpoint_value": 6}
{"compound": "CCc1cccc(Nc2cc(Br)c(N)c3c2C(=O)c2ccccc2C3=O)c1 [Compound 53]", "endpoint_value": 5}
{"compound": "Nc1c(S(=O)(=O)[O-])cc(Nc2ccc(CO)cc2)c2c1C(=O)c1ccccc1C2=O.[Na+] [Compound 29]", "endpoint_value": 5}

[I] COc1cccc(Nc2cc(C)c(N)c3c2C(=O)c2ccccc2C3=O)c1 [Compound 55]
[II] Nc1ccc(Nc2cc(S(=O)(=O)O)c(N)c3c2C(=O)c2ccccc2C3=O)cc1S(=O)(=O)O [Compound 32]
[III] Nc1c(S(=O)(=O)O)cc(Nc2cccc(C(=O)O)c2)c2c1C(=O)c1ccccc1C2=O [Compound 26]
[IV] O=C1c2ccccc2C(=O)c2c(Nc3cccc(F)c3)cc(S(=O)(=O)O)cc21 [Compound 57]
[V] Nc1c(S(=O)(=O)[O-])cc(Nc2cccc(Cl)c2Cl)c2c1C(=O)c1ccccc1C2=O.[Na+] [Compound 34]
// sort entries: inhibition at 2 µM, high to low Write the labels out in the order the request specifies.
V, II, I, III, IV

====

Target: UniProtKB O75355
quantity_name: IC50 (µM)

[1] Nc1c(S(=O)(=O)[O-])cc(Nc2cccc(CC(=O)O)c2)c2c1C(=O)c1ccccc1C2=O.[Na+]
[2] Nc1cc(Nc2cc(S(=O)(=O)O)c(N)c3c2C(=O)c2ccccc2C3=O)ccc1S(=O)(=O)O
Pick the one with the larger IC50: 1 vs 2 State your choice using its label.
2

====

Molecular target: human NTPDase3 (Homo sapiens, UniProt O75355)
Construct: expressed in transfected cells; host or cells: COS-7 cells (membrane preparation)
Sequence (O75355 1-529): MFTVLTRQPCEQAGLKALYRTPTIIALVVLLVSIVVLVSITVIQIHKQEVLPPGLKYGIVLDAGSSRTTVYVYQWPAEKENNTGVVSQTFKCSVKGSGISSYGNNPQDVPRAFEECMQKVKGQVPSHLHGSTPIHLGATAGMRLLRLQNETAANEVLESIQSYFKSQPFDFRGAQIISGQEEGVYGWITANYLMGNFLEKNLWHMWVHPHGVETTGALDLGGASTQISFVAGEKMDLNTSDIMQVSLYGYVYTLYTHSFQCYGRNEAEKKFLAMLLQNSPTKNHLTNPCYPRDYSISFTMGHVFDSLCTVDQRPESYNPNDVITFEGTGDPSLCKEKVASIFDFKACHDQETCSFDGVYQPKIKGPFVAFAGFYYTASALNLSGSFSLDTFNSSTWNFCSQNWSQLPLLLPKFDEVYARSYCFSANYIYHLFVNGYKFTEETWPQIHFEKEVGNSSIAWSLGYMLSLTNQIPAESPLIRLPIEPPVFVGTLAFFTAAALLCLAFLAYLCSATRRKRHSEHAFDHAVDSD
Assay: Malachite green assay, human NTPDase3
Assay type: biochemical
Settings: 2 μM compound; 100 µM ATP; COS-7 membrane preparation; read-out: % inhibition at 2 μM concentration, NTPDase3
quantity_name: inhibition at 2 µM (%)

// solved cases for inhibition at 2 µM follow
{"molecule": "COc1cccc(Nc2cc(C)c(N)c3c2C(=O)c2ccccc2C3=O)c1", "test_target": "human NTPDase3 (Homo sapiens, UniProt O75355)", "quantity_name": "inhibition at 2 µM", "endpoint_value": 0}
{"molecule": "Nc1c(S(=O)(=O)[O-])cc(Nc2ccc(Sc3ccc(Cl)cc3)cc2)c2c1C(=O)c1ccccc1C2=O.[Na+]", "test_target": "human NTPDase3 (Homo sapiens, UniProt O75355)", "quantity_name": "inhibition at 2 µM", "endpoint_value": 42}
{"molecule": "Cc1cccc(Nc2cc(S(=O)(=O)O)c(N)c3c2C(=O)c2ccccc2C3=O)c1 [Compound 6, reference compound]", "test_target": "human NTPDase3 (Homo sapiens, UniProt O75355)", "quantity_name": "inhibition at 2 µM", "endpoint_value": 1}
{"molecule": "Nc1c(S(=O)(=O)O)cc(Nc2cccc3ccccc23)c2c1C(=O)c1ccccc1C2=O", "test_target": "human NTPDase3 (Homo sapiens, UniProt O75355)", "quantity_name": "inhibition at 2 µM", "endpoint_value": -4}
{"molecule": "Nc1c(S(=O)(=O)[O-])cc(Nc2ccc(CO)cc2)c2c1C(=O)c1ccccc1C2=O.[Na+]", "test_target": "human NTPDase3 (Homo sapiens, UniProt O75355)", "quantity_name": "inhibition at 2 µM", "endpoint_value": -3}

[A] Cc1cc(Cl)ccc1Nc1cc(S(=O)(=O)O)c(N)c2c1C(=O)c1ccccc1C2=O
[B] Nc1c(S(=O)(=O)O)cc(NCc2ccccc2)c2c1C(=O)c1ccccc1C2=O
[C] Cc1ccc(Sc2ccc(Nc3cc(S(=O)(=O)O)c(N)c4c3C(=O)c3ccccc3C4=O)cc2)c(C)c1
rank_up(items): orders items by reported inhibition at 2 µM in ascending numerical order. # answer = labels listed in requested order
B, A, C

[1] O=C(O)c1cc(Nc2cc(S(=O)(=O)O)cc3c2C(=O)c2ccccc2C3=O)ccc1O
[2] CCc1cccc(Nc2cc(C)c(N)c3c2C(=O)c2ccccc2C3=O)c1
[3] Nc1c(S(=O)(=O)[O-])cc(Nc2ccccc2CO)c2c1C(=O)c1ccccc1C2=O.[Na+]
[4] Nc1c(S(=O)(=O)O)cc(Nc2ccc(Cc3ccccc3)cc2)c2c1C(=O)c1ccccc1C2=O
Rank ascending by inhibition at 2 µM. Returns: the labels listed in the requested order.
2, 4, 3, 1

[A] Cc1ccc(Sc2ccc(Nc3cc(S(=O)(=O)O)c(N)c4c3C(=O)c3ccccc3C4=O)cc2)cc1C
[B] COc1ccc(Sc2ccc(Nc3cc(S(=O)(=O)[O-])c(N)c4c3C(=O)c3ccccc3C4=O)cc2)cc1.[Na+]
[C] O=C1c2ccccc2C(=O)c2c(Nc3cccc(F)c3)cc(S(=O)(=O)O)cc21
[D] Nc1c(S(=O)(=O)O)cc(Nc2cccc(F)c2)c2c1C(=O)c1ccccc1C2=O
Put the items in sequence by inhibition at 2 µM, from largest down. Answer by listing the labels in the order asked for.
A, B, C, D
